# assayed.system: human GPR119 (Homo sapiens)
# Sequence (Q8TDV5 whole entry): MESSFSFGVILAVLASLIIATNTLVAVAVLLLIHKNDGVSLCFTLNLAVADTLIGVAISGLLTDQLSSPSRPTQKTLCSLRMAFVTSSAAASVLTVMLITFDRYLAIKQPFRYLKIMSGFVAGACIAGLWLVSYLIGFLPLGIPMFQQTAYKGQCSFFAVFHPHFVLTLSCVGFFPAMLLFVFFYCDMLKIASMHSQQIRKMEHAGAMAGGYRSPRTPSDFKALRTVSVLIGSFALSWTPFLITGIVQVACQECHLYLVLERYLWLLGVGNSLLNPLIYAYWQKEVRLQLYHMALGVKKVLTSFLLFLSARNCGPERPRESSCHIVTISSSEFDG
# measurement.description: Human Tet-inducible cAMP assay
# measurement.context: Flp-In-T-REx 293 tetracycline inducible cells expressing GPR119; Hit Hunter cAMP kit; 1 hour at 37° C.; read-out: hGPR119 EC50
pEC50: −log10 of the molar value. Where a name gives a salt, the structure may show the parent alone.
Listing: pEC50 of selected molecules
property.label: pEC50

In [3]: df
Out[3]:
                                   molecule  property_label  experimental_result
0  CC(C)OC(=O)N1CCC(Oc2ccn(-c3ccc(-n4cncn4)cc3)c(=O)c2)CC1           pEC50                 5.28
1  CCCc1cnc(N2CCC(Oc3ccn(-c4ccc(-n5cncn5)cc4)c(=O)c3)CC2)nc1 [Example 1, hydrochloride salt]           pEC50                 7.06
2  CCCc1cnc(N2CCC(Oc3ccn(-c4ccc(-c5ncco5)cc4)c(=O)c3)CC2)nc1           pEC50                 6.69
3  CCCc1cnc(N2CCC(Oc3ccn(-c4ccc(-n5ccnc5)cc4)c(=O)c3)CC2)nc1 [Example 2, hydrochloride salt]           pEC50                 7.03

Taken from patent US7928230B2.
